Consider the following compounds and their measured melting point readings.

> print(dat)
                                   compound  observation.type  measured.value
1  CCN(CC)CCNc1ccc(CNC)c2sc3ccc(O)cc3c(=O)c12     melting point   167 to 169 °C
2         CC(C)(C)OC(=O)NCC(=O)Nc1cccc(I)c1     melting point   126 to 128 °C
3  COCOc1ccc(C(=O)Cn2c(-c3nonc3N)nc3ccccc32)cc1OC     melting point          190 °C

// query For the compound shown here, O=C1N(O)CC12CCOc1cc(Cl)c(Cl)cc12 (stereo not given) , give the reported melting point.
// result 157 to 158 °C

// query How about COc1ccc(-c2nc(CCCCCc3nnn[nH]3)oc2-c2ccc(OC)cc2)cc1 ?
// result 150 °C

// query How about Cc1[nH]c2ccccc2c1C1=C(Cl)C(=O)C=C(Cl)C1=O ?
// result 158 to 159 °C

// query How about CC(=O)OCc1ccc2oc(=O)c(C(=O)Oc3cc(Cl)cc(Cl)c3)cc2c1 ?
// result 146 to 150 °C

// query How about Cc1ccc(C)c(-c2cn(C)cc(-c3ccccc3)c2=O)c1 ?
// result 188 to 190 °C

// query How about COc1ccc(-n2nc(Cl)cc2-c2ccc(OCCO)cc2)cn1 ?
// result 136 to 138 °C

// query How about O=C(Nc1cnccn1)c1cn(-c2ccccc2)c2ccccc2c1=O ?
// result 298 to 300 °C

====

observation type: melting point

> print(dat)
                                   compound  measured.value
1  CN(C)S(=O)(=O)c1ccc(C(F)(F)F)cc1S(N)(=O)=O   189 to 191 °C
2  CC(=O)NNc1ccc(NC(=S)Nc2ccc(NNC(C)=O)cc2)cc1   234 to 236 °C
3  Nc1ccc(Oc2ccc(S(=O)(=O)c3ccc(Oc4ccc(N)c(O)c4)cc3)cc2)cc1O   228 to 231 °C
4  OCC1OC(n2cnc3c(NCc4cccc(I)c4)ncnc32)C(O)C1O (stereo unspecified)          172 °C
5           COC(=O)CC(=O)c1cc(F)c(OC)c(F)c1     64 to 67 °C

Continue with the next compound.
// query For the compound shown here, O=C1c2ccccc2C(=O)N1OCCCN1CCN(c2cccc(Cl)c2)CC1 , give the reported melting point.
// result 140 to 142 °C

====

observation type: melting point (°C)

> print(dat)
                                 compound  observation.type  measured.value
1  Cc1ccccc1-c1cc(C(F)(F)F)n2cnc(C#N)c2n1     melting point             151

[A] Clc1ccc(C(Cn2ccnc2)C2CCCC2)c(Cl)c1 (stereo not given)
[B] Sc1nc2cc(C(c3ccccc3)n3ccnc3)ccc2[nH]1 (stereo not given)
// query I'm curious whether A or B has the smaller melting point number. Which is it? Selection: enter the item's label.
// result A
(A: 97.6 °C, B: 260 °C)

====

Consider the following compounds and their measured melting point readings.

> print(dat)
                                   compound  observation.type  measured.value
1  Cc1cccc(NC(=O)NCC(=O)N2C(C(=O)OC(C)(C)C)CCCC2c2ccccc2)c1 (centres undefined)     melting point          123 °C
2  COc1ccc(C2CCCCC2)cc1-c1csc(NC(=O)N2CCN(C3CCOCC3)CC2)n1     melting point          226 °C
3  CC(COS(C)(=O)=O)N1c2ccccc2Sc2ccc(C#N)cc21 (racemic)     melting point          124 °C
4  CC(C)c1cc(-c2cc(C(=O)O)ccc2S(C)(=O)=O)on1     melting point   176 to 178 °C
5  CCOC(=O)Cc1nn(Cc2ccc(Cl)c(Cl)c2)c(=O)c2c(C)cccc12     melting point   134 to 137 °C
6  O=C1Cc2c(cc3ccccc3c2Br)C(c2ccccc2Cl)N1 (centres undefined)     melting point   256 to 257 °C
7  CC(c1oc2ccccc2c(=O)c1-c1cccc(F)c1)n1nc(-c2ccc(CN)s2)c2c(N)ncnc21 (centres undefined)     melting point   275 to 278 °C
8   COc1ccc(/C=C/c2ccc3cc(C(=O)O)ccc3n2)cc1     melting point   274 to 277 °C

// query For the compound shown here, Cc1nc(NC(=O)c2ccccc2)sc1C(=O)NCc1ccccc1C(F)(F)F , give the reported melting point.
// result 198 to 199 °C
